Test system: symmetric dimethylation of arginine (SDMA) of PRMT5 substrates in MCF-7 cells
experimentDescription: PRMT5 Cell Target Engagement (TE) Assay
Type: cell-based
conditionSummary: 3 days treatment, SDMA high content imaging
Quick reference: pEC50 of the listed items.
Scale: pEC50 equals -log10([C]), with [C] in mol/L.

Sample records with pEC50:
| compound | measuredNumber |
| --- | --- |
| CC1(C)CC1(C#N)c1cnc2nc(C(=O)N3CC[C@]4(Cc5ccccc5CN4)[C@H](O)C3)cn2c1 (single isomer, unassigned) [Example 148] | 6.92 |
| CCOc1cc(C(=O)N2C3CCC2COC3)ccc1C(=O)N1CCC2(Cc3ccccc3CN2)C(O)C1 (single isomer, unassigned) [Example 86] | 5.83 |

Next:
Memo: O=C(c1cn2cc(Br)cc(C(O)C(F)(F)F)c2n1)N1CC[C@]2(Cc3ccccc3CN2)[C@H](O)C1 (single isomer, unassigned) [Example 31] , reported pEC50: 8.35
